Target: T1, human CEACAM5 (carcinoembryonic antigen, CEA) on cells (human, UniProt P06731 35-685)
T1 construct: endogenous on MKN45 gastric adenocarcinoma cells; full-length cDNA stably transfected in the CHO-K1 clones; also called huCEACAM5; MKN45 cells
T1 sequence: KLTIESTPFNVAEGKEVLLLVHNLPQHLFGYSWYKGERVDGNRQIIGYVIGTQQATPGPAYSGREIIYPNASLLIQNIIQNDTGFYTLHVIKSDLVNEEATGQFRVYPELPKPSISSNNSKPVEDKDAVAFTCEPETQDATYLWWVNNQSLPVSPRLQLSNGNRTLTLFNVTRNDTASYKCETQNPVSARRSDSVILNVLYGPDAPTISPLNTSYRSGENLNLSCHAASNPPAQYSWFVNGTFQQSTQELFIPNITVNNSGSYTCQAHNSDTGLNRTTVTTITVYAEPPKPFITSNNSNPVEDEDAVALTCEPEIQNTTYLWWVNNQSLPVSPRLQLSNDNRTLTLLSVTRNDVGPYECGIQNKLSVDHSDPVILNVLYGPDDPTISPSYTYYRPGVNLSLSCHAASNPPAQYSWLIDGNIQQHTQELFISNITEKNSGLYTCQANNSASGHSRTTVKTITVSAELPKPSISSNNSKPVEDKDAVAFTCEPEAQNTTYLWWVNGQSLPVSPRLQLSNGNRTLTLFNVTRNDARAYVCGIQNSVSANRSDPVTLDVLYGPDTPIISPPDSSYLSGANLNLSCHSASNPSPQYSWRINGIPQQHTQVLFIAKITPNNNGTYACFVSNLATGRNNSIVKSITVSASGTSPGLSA
Assay: flow cytometry, MKN45 cells
Parameters: unit not given beside the values
Kindly state AUC for each of the entries shown.
Answers are plain numbers.

get_value(item= P1AE3119 (antibody, IgG1, V domains shown, huIgG1 P329G LALA; also called MFE-H24 / MFE-L25) VH: QVQLVQSGAEVKKPGASVKVSCKASGFNIKDSYMHWVRQAPGQGLEWMGWIDPENGDTEYAPKFQGRVTMTTDTSISTAYMELSRLRSDDTAVYYCNEGTPTGPYYFDYWGQGTLVTVSS VL: EIQMTQSPSSLSASVGDRVTITCRASSSVSYMHWYQQKPGKAPKLLIYSTSNLASGVPSRFSGSGSGTDFTLTISSLQPEDFATYYCQQRSSYPLTFGGGTKLEIK , readout=AUC) returns 10300

get_value(item= P1AE3103 (antibody, IgG1, V domains shown, huIgG1 P329G LALA; also called MFE-H28 / MFE-L27; huMFE23-L27-H28) VH: QVQLVQSGAEVKKPGASVKVSCKASGFNIKDSYMHWVRQAPGQGLEWMGWIDPENGDTEYAPKFQGRVTMTRDTSISTAYMELSRLRSDDTAVYYCNEGTPTGPYYFDYWGQGTLVTVSS VL: EIQMTQSPSSLSASVGDRVTITCRASSSVPYMHWYQQKPGKAPKLLIYSTSNLASGVPSRFSGSGSGTDFTLTISSVQPEDFATYYCQQRSSYPLTFGGGTKLEIK , readout=AUC) returns 92400

get_value(item= P1AE3091 (antibody, IgG1, V domains shown, huIgG1 P329G LALA; also called MFE-H28 / MFE-L29) VH: QVQLVQSGAEVKKPGASVKVSCKASGFNIKDSYMHWVRQAPGQGLEWMGWIDPENGDTEYAPKFQGRVTMTRDTSISTAYMELSRLRSDDTAVYYCNEGTPTGPYYFDYWGQGTLVTVSS VL: EIQMTQSPSSLSASVGDRVTITCRASSSVPYMHWLQQKPGKAPKLLIYSTSSLQSGVPSRFSGSGSGTDFTLTISSVQPEDFATYYCQQRSSYPLTFGGGTKLEIK , readout=AUC) returns 83100

get_value(item= P1AE3104 (antibody, IgG1, V domains shown, huIgG1 P329G LALA; also called MFE-H27 / MFE-L27) VH: QVQLVQSGAEVKKPGASVKVSCKASGFNIKDSYMHWVRQAPGQGLEWMGWIDPENGDTEYAPKFQGRVTMTTDTSISTAYMELSRLRSDDTAVYYCARGTPTGPYYFDYWGQGTLVTVSS VL: EIQMTQSPSSLSASVGDRVTITCRASSSVPYMHWYQQKPGKAPKLLIYSTSNLASGVPSRFSGSGSGTDFTLTISSVQPEDFATYYCQQRSSYPLTFGGGTKLEIK , readout=AUC) returns 414

Next:
get_value(item= P1AE3100 (antibody, IgG1, V domains shown, huIgG1 P329G LALA; also called MFE-H25 / MFE-L28; huMFE23-L28-H25) VH: QVQLVQSGAEVKKPGASVKVSCKASGYTFKDSYMHWVRQAPGQGLEWMGWIDPENGDTEYAPKFQGRVTMTTDTSISTAYMELSRLRSDDTAVYYCNEGTPTGPYYFDYWGQGTLVTVSS VL: EIQMTQSPSSLSASVGDRVTITCRASSSVPYMHWLQQKPGKAPKLLIYSTSNLASGVPSRFSGSGSGTDFTLTISSVQPEDFATYYCQQRSSYPLTFGGGTKLEIK , readout=AUC) returns 74100
